These data points were gathered from patent US20260250289A1.

target: WRN helicase (aa N517-P1238) (Homo sapiens, UniProt Q14191); construct: The core helicase motif of the WRN protein (aa N517-P1238) was produced for this assay; His (N); ZZ (N); 3C protease cleavage site (N); virus and BIICs made in SF9); assay: WRN ATPase assay (DNA dependent ATP hydrolysis, ADP-Glo); conditions: 3 hours pre-incubation, 300 micromolar ATP, FLAP26 DNA; geometric mean of at least 2
Sequence (Q14191 517-1238): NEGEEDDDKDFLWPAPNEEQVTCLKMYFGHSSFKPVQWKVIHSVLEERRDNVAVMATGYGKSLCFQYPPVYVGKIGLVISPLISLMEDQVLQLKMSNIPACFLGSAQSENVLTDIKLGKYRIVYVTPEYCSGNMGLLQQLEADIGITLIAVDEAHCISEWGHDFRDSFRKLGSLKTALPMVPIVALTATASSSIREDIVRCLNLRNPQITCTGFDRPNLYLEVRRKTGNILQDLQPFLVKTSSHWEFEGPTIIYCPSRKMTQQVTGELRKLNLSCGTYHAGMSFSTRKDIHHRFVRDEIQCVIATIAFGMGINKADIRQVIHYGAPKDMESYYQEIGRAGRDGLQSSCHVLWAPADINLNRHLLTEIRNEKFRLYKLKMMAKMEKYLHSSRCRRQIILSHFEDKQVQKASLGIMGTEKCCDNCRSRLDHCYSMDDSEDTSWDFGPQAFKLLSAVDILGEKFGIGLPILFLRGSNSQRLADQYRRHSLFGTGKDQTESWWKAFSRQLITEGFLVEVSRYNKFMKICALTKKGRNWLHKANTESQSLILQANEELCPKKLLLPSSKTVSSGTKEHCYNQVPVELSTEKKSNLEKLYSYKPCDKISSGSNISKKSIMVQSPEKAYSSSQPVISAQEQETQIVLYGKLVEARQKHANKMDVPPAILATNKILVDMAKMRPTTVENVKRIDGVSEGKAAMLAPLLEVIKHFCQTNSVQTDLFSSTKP
observable: IC50 (nM)
Quick reminder: number only, in nM, skip the unit.

Some solved cases for reference:
[
  {
    "smiles-input": "CC(=O)N1CCN(c2c(C)n(CC(=O)Nc3ccc(S(F)(F)(F)(F)F)cc3)c3nc(C4=CCOCC4)nn3c2=O)CC1",
    "reading-unit": "nM",
    "observed-value": 200
  },
  {
    "smiles-input": "CC(=O)N1CCN(c2c(C)n(CC(=O)Nc3ccc(Cl)c(C(F)(F)F)c3)c3nc(C4=CCN(C(=O)OC(C)(C)C)CC4)nn3c2=O)CC1",
    "reading-unit": "nM",
    "observed-value": 200
  },
  {
    "smiles-input": "CC(=O)N1CCN(c2nc3n(CC(=O)Nc4ccc(Cl)cc4)c(C)c(N4CCN(C(=O)c5ccncc5O)CC4)c(=O)n3n2)CC1",
    "reading-unit": "nM",
    "observed-value": 300
  },
  {
    "smiles-input": "Cc1nc2ccccc2c(C(=O)N2CCN(c3c(C)n(CC(=O)Nc4ccc(C(F)(F)F)cc4)c4nc(C5=CCOCC5)nn4c3=O)CC2)c1O",
    "reading-unit": "nM",
    "observed-value": 90
  }
]

[ask] I'd like to know its IC50. The compound in question is CC(=O)N1CCN(c2c(C)n(CC(=O)Nc3ccc(C(F)(F)F)cc3Br)c3nc(C4=CCOCC4)nn3c2=O)CC1
[reply] 800

[ask] Check CC(=O)N1CCN(c2c(C)n(CC(=O)Nc3cc(Cl)c(C(F)(F)F)cc3C)c3nc(C4=CCOCC4)nn3c2=O)CC1 too.
[reply] 200
